# study-target: α4β7 integrin (Homo sapiens, UniProt P13612+P26010)
# Construct: monitoring the capture of α4β7 integrin expressing cells; endogenous in cells; host or cells: RPMI8866
# Sequence (P13612 34-1032): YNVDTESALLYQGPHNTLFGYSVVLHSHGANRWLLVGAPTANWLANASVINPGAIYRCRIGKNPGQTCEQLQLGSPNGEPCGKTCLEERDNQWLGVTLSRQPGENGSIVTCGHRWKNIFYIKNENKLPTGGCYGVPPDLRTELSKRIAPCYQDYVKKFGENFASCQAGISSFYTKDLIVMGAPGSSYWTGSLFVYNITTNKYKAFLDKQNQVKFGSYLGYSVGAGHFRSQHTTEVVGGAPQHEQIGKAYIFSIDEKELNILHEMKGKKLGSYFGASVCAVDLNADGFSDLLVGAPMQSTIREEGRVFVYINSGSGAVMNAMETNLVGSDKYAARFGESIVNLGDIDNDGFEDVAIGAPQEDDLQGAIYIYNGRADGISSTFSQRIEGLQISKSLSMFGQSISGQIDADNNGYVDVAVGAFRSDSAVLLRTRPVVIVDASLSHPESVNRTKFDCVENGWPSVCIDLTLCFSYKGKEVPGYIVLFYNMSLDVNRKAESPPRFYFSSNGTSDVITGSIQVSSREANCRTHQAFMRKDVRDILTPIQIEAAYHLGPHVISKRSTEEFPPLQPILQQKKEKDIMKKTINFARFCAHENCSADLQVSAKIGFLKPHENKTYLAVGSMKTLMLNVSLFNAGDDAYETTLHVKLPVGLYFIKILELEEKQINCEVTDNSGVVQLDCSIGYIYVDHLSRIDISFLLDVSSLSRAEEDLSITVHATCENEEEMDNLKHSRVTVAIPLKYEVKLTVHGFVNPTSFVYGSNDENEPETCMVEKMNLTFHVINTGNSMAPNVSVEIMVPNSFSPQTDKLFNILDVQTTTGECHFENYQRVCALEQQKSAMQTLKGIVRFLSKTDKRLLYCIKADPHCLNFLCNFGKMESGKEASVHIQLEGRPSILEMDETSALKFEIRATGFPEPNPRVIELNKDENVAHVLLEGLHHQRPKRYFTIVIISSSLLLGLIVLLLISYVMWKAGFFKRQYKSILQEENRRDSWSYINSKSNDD
# Sequence (P26010 20-798): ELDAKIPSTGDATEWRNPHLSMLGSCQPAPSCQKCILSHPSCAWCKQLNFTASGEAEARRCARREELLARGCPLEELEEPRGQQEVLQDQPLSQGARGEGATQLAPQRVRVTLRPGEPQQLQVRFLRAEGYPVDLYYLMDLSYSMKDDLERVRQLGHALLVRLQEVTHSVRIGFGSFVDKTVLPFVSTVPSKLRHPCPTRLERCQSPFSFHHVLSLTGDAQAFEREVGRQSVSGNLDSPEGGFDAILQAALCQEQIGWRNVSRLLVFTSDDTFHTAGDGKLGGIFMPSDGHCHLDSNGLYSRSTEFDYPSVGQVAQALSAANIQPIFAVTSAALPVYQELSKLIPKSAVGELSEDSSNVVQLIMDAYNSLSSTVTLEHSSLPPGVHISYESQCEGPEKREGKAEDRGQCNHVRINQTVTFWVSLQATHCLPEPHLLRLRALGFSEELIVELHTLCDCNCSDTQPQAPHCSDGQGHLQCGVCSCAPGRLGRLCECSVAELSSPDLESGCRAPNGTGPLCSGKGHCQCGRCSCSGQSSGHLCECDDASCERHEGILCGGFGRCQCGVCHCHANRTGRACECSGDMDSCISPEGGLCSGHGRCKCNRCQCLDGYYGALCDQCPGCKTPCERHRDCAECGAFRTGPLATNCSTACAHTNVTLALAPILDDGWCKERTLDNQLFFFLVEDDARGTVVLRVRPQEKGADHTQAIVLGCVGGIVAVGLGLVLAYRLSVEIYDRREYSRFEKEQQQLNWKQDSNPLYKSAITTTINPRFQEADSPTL
# assay-summary: α4β7 Integrin Cell Capture Assay
# Assay type: cell-based
# condition-description: capture of α4β7 integrin expressing RPM18866 cells on MadCAM-1 extracellular domain-coated plate; Table 2
# Method: The potency of inhibitors in preventing α4β7 integrin interaction with MadCAM-1 was measured by monitoring the capture of α4β7 integrin expressing cells on a recombinant MadCAM-1 extracellular domain-coated plate. […] RPM18866 cells were spun down and re-suspended in assay medium (DMEM+0.5% FBS+0.5 mM MnCl2) at a density of 0.5×10^6 cells/mL. […] The cells that were bound to the plate were counted and plotted against the compound concentration to determine the EC50 of the test compounds.
measured-parameter: EC50 (nM)
Write down the numeric answer in nM and omit the unit.

Check out these entries, answers already filled in.
// lookup EC50 for Cn1c(=O)c(-c2ccc(C[C@H](NC(=O)c3c(F)cc(N4CCOC[C@@H]4C(F)(F)F)cc3F)C(=O)O)cc2)cc2cnccc21
1.1

// lookup EC50 for COc1cnc2c(=O)n(-c3ccc(C[C@H](NC(=O)c4c(C)cc(N5CCOC[C@@H]5C(F)(F)F)cc4F)C(=O)O)cn3)c(=O)n(C)c2c1
0.16

// lookup EC50 for COc1cc(C[C@H](NC(=O)c2c(F)cc(N3CCOC[C@@H]3C(F)(F)F)cc2F)C(=O)O)ccc1-n1c(=O)c2ccncc2n(C)c1=O
0.2

// lookup EC50 for Cc1nc(-c2ccc(C[C@H](NC(=O)c3c(F)cc(N4CCOC[C@@H]4C(F)(F)F)cc3F)C(=O)O)cc2)c(=O)n(C)c1C
4.9

// lookup EC50 for CC[C@@H](Nc1cc(F)c(C(=O)N[C@@H](Cc2ccc(-n3c(=O)cc(C)n(C)c3=O)nc2)C(=O)O)c(F)c1)C(F)(F)F
15.9

For the next question, use this compound.
// lookup EC50 for Cc1cc(C[C@H](NC(=O)c2c(C)cc(N3CCOC[C@@H]3C(F)(F)F)cc2F)C(=O)O)ccc1-c1c(C)nc(C)n(C)c1=O
0.3
